target: human CLDN6 fused to GFP, expressed on engineered HEK293T cells (human) (UniProt P56747); assay: FACS, 293T clone with human CLDN6, 0.3 ug Ab
A collection of binders and their measured FACS signal
Just the number, please, no unit attached.

1) AB3-4 (antibody, V domains shown) VH: EVQLLESGGGLVQPGGSMRLSCAASGFTFSNYWMNWVRQAPGKGLEWVAQIRLKSDNYATHYADSVKGRFTISRDDSKNTVYLQMNSLRAEDTGVYYCNDGPPSGYWGQGTLLTVSS VL: DIQMTQSPSSLSASVGDRVTITCRISENIYSYLAWYQQKPGKAPKLLIYNAKILVEGVPSRFSGSGSGTDFTLTISSLQPEDFATYYCQHHYTVPWTFGQGTKLEIK | 11600
2) AB18-6 (antibody, V domains shown) VH: QVQLVQSGAEVKKPGASVKISCKASGYSFTGYNMNWVRQAPGQGLEWIGNIDPYYGGSTYAQKFQGRATLTVDTSTSTAYMELSSLRSEDTAVYYCARERSGYVFSAMDYWGQGTLVTVSS VL: DIVMTQSPDSLAVSLGERVTMNCKSSQSVLFSSNQKNYLAWYQQKPGQPPKLLIYWASTRESGVPDRFSGSGSGTDFTLTISSVQAEDVAVYYCHQYLSSRTFGQGTKLEIK | 26900
3) AB4-3 (antibody, V domains shown) VH: QVQLVQSGAEVKKPGASVKVSCKASGYTFTSYTMHWVRQAPGQGLEWMGYINPSSTYTHYAQKFQGRVTMTADTSTSTVYMELSSLRSEDTAVYYCSRGELGGFAYWGQGTLVTVSS VL: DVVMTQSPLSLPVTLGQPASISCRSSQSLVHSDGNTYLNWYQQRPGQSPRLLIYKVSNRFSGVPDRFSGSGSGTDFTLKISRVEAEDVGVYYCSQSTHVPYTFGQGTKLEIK | 14300
4) AB9-3 (antibody, V domains shown) VH: QVQLVQSGAEVKKPGASVKMSCKASGYRFTDYNMHWVRQAPGQGLEWIGYINPNNGGTNYAQKFQGRATLTVDTSTSTAYMELSSLRSEDTAVYYCARDYLYFFDCWGQGTLLTVSS VL: DIQMTQSPSSLSASVGDRVTITCLASQTIGTWLAWYQQKPGKAPKLLIYAAASLADGVPSRFSGSGSGTDFTFTISSLQPEDFVTYYCQQLYSIPRTFGQGTKLEIK | 9500
5) AB4-7 (antibody, V domains shown) VH: QVQLVQSGAEVKKPGASVKMSCKASGYTFTSYTMHWIRQAPGQGQEWIGYINPSSTYTHYAQKFQGRATLTADKSTSTAYMELSSLRSEDTAVYYCSRGELGGFAYWGQGTLVTVSS VL: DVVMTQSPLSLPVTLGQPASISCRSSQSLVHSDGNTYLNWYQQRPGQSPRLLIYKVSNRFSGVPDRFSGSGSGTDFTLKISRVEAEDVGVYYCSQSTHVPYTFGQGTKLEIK | 19200

Next binder, FACS signal to be filled in.
[ask] I would be grateful if you could share the reported FACS signal for AB9-4 (antibody, V domains shown) VH: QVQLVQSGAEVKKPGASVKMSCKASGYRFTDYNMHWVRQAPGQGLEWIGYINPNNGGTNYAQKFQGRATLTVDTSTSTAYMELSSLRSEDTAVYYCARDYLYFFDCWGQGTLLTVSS VL: DIQMTQSPSSLSASVGDRVTITCRASQTIGTWLAWYQQKPGKAPKLLIYAAASLADGVPSRFSGSGSGTDFTFTISSLQPEDFVTYYCQQLYSIPRTFGQGTKLEIK .
[reply] 15300
